# Tested on: NCI-H747 cells
# method.summary: DHX9 cellular proliferation assay (CellTiter-Glo), NCI-H747 (CRC-MSS)
# Assay type: cell-based
# measurement.context: Homo sapiens, NCI-H747, performed at Pharmaron; read-out: H747 (CRC-MSS) Antiproliferative
readout.label: IC50

Recorded IC50, per entry:
* Cc1cc(C(=O)Nc2cc(Cl)cc(NS(C)(=O)=O)c2)cn1-c1ncc(N2CCC(F)(F)C2)cc1F | 8.16 µM
* Cc1sc(C(=O)Nc2cc(Cl)cc(NS(C)(=O)=O)c2)cc1-c1ncccc1OC(C)c1cncc(F)c1 (single isomer, unassigned) [Example 631] | 4.88 µM
* CCS(=O)(=O)Nc1cc(Cl)cc(NC(=O)c2cc(-c3ncc(N4CC(F)(F)C4)cc3F)n(C)c2)c1 | 2.22 µM
* Cc1sc(C(=O)Nc2cc(Cl)cc(NS(C)(=O)=O)c2)cc1-c1ncc(OC(C)C)cc1F | 6.78 µM

Consider the following items and state reported IC50 for each.
1. Cc1cc(C(=O)Nc2cc(Cl)cc(NS(C)(=O)=O)c2)cn1-c1ccc(N(C)C2CCOC2)cn1 (stereo not drawn)
2. Cc1sc(C(=O)Nc2cc(Cl)cc(NS(C)(=O)=O)c2)cc1-c1ncccc1OC(C)c1cncc(F)c1 (stereo not drawn) [Example 630]

Completion:
["> 10 µM", "> 10 µM"]

----------
# system.name: Human recombinant DHX9 protein (Homo sapiens (Human))
# method.summary: DHX9 ATPase assay (ADP-Glo)
# measurement.context: read-out: DHX9 Biochemical Inflection Point
// NB: equality with 20 nM counts as 0 (no); only IC50 strictly below is 1 (yes)

Reference set, count: 10
• Cc1sc(C(=O)Nc2cc(Cl)cc(NS(C)(=O)=O)c2)cc1-c1ccc(C#N)cn1 = 0 (no)
• CS(=O)(=O)Nc1cc(Cl)cc(NC(=O)c2cnn(C3CCN(CC(F)(F)F)CC3)c2)c1 = 0 (no)
• Cc1sc(C(=O)Nc2cc(Cl)cc(NS(C)(=O)=O)c2)cc1-c1ncc(F)cn1 = 1 (yes)
• CCS(=O)(=O)Nc1cc(Cl)cc(NC(=O)c2cc(-c3ncc(F)cc3C)cs2)c1 = 1 (yes)
• Cn1cc(C(=O)Nc2cc(Cl)cc(NS(C)(=O)=O)c2)cc1-c1ccc(N2CCOCC2)cn1 = 1 (yes)
• CS(=O)(=O)Nc1cc(Cl)cc(NC(=O)c2cnn(-c3ncccc3Oc3cccc(F)c3)c2)c1 = 0 (no)
• Cc1sc(C(=O)Nc2cc(Cl)cc(NS(C)(=O)=O)c2)cc1-c1ncc(N2CCC3(COC3)C2)cc1F = 1 (yes)
• CC1CN(c2ccc(-n3cc(C(=O)Nc4cc(Cl)cc(NS(C)(=O)=O)c4)cn3)nc2)CCO1 (stereo not drawn) = 0 (no)
• Cc1sc(C(=O)Nc2cc(Cl)cc(NS(C)(=O)=O)c2)cc1-c1ncc(S(C)(=O)=O)cn1 = 0 (no)
• CS(=O)(=O)Nc1cc(Cl)cc(NC(=O)c2cc(-c3ncc(F)cc3OCc3cncnc3)n(CC(F)(F)F)c2)c1 = 1 (yes)

Prompt: Quick check: does "CS(=O)(=O)Nc1cc(Cl)cc(NC(=O)c2cc(-c3ncc(C(F)(F)F)cn3)cs2)c1" have IC50 under 20 nM?
Completion: 0 (no)

Prompt: And then "Cn1cc(C(=O)Nc2cc(Cl)cc(NS(C)(=O)=O)c2)cc1-c1ncc(F)cc1Cl" , what is it?
Completion: 0 (no)

Prompt: And then "Cc1sc(C(=O)Nc2cc(Cl)cc(NS(C)(=O)=O)c2)cc1-c1ncc(F)cc1-c1cncc(F)c1" , what is it?
Completion: 1 (yes)

Prompt: And then "CC(C)(C)OC(=O)N1CC(n2cc(C(=O)Nc3cc(Cl)cc(NS(C)(=O)=O)c3)cc2-c2ncc(F)cn2)C1" , what is it?
Completion: 0 (no)

----------
# system.name: Human recombinant DHX9 protein (Homo sapiens (Human), UniProt Q08211)
# Sequence (Q08211 whole entry): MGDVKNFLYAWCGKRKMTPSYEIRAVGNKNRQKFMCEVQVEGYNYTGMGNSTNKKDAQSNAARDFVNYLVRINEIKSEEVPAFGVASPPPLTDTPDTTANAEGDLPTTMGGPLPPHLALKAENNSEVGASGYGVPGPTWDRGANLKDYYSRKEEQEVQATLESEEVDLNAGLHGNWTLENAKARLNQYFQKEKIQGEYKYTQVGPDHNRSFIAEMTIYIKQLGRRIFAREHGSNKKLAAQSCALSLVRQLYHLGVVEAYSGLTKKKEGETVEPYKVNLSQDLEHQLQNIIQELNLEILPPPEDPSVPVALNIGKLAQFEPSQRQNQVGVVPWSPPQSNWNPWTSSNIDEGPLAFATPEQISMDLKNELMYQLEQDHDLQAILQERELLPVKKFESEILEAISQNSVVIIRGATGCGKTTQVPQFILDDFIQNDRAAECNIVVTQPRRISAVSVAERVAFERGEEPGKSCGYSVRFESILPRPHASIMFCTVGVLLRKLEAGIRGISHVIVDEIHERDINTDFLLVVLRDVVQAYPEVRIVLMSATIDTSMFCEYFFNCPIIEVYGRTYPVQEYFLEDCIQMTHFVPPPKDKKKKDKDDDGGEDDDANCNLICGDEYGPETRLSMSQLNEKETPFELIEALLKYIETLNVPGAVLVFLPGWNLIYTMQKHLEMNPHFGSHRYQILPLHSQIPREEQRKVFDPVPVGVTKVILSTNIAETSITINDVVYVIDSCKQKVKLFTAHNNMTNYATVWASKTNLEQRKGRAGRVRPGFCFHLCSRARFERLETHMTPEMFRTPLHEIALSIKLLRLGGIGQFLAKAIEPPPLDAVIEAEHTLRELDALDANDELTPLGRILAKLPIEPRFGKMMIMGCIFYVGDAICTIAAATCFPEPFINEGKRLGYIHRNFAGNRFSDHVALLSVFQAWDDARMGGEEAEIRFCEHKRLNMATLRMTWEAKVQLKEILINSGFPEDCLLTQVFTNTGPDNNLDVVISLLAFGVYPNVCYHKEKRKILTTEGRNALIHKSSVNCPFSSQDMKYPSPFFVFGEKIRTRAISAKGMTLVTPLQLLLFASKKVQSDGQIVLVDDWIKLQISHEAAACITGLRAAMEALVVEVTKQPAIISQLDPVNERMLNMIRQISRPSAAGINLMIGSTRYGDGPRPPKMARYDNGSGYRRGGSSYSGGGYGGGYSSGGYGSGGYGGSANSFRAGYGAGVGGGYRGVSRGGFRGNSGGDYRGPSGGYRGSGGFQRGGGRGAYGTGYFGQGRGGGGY
# method.summary: DHX9 ATPase assay (ADP-Glo)
# measurement.context: read-out: DHX9 Biochemical Inflection Point
Task for the reader: assign each of the following compounds its reported pIC50.
Answers are plain numbers, as −log10 of the molar value.

Recorded pIC50, per entry:
• Cn1cc(C(=O)Nc2cc(Cl)cc(NS(C)(=O)=O)c2)cc1-c1c(F)cc(F)c[n+]1[O-] = 7.23
• Cn1cc(C(=O)Nc2cc(Cl)cc(NS(C)(=O)=O)c2)cc1-c1ncc(F)cc1-c1cncc(F)c1 = 7.43
• Cc1cc(C(=O)Nc2cc(Cl)cc(NS(C)(=O)=O)c2)cn1-c1ccc(N2CCOC(C)(C)C2)cn1 = 8.27
• Cc1sc(C(=O)Nc2cc(Cl)cc(NS(C)(=O)=O)c2)cc1-c1ncc(F)cc1N1CCN(S(C)(=O)=O)CC1 = 6.74
• Cc1cc(C(=O)Nc2cc(Cl)cc(NS(C)(=O)=O)c2)cn1-c1ncccc1O = 7.55
• CS(=O)(=O)Nc1cc(I)cc(NC(=O)c2cc(-c3ccccc3)cs2)c1 = 6.60

Consider the following items and state reported pIC50 for each.
1. Cn1cc(C(=O)Nc2cc(Cl)cc(NS(C)(=O)=O)c2)cc1-c1ccc(C2CCOCC2)cn1
2. CS(=O)(=O)Nc1cc(Cl)cc(NC(=O)c2cc(N3CCOCC3)cs2)c1
3. CS(=O)(=O)Nc1cc(Cl)cc(NC(=O)c2cnn(-c3ccccc3OCc3cccc(F)c3)c2)c1
4. CS(=O)(=O)Nc1cc(Cl)cc(NC(=O)c2cnn(-c3ccc(C4CCOCC4)cn3)c2)c1
5. COc1cnc(-c2cc(C(=O)Nc3cc(Cl)cc(NS(C)(=O)=O)c3)cn2CC(F)(F)F)nc1
6. COc1cc(N2CC(F)(F)C2)cnc1-c1cc(C(=O)Nc2cc(Cl)cc(NS(=O)(=O)CCO)c2)sc1C

Completion:
1. 7.90
2. 6.92
3. 8.44
4. 7.72
5. 7.15
6. 7.58

Consider the following items and state reported pIC50 for each.
1. CS(=O)(=O)Nc1cc(Cl)cc(NC(=O)c2cnn([C@@H]3CC[C@H]3O)c2)c1 (single isomer, unassigned) [Example 306a]
2. CS(=O)(=O)Nc1cc(Br)cc(NC(=O)c2cnn(-c3cc(C#N)ccc3OCc3ccccc3)c2)c1
3. Cn1nc(-c2ccccn2)cc1C(=O)Nc1cc(Cl)cc(NS(C)(=O)=O)c1

Completion:
1. 6.90
2. 6.81
3. 6.35

----------
# system.name: Human recombinant DHX9 protein (Homo sapiens (Human))
# method.summary: DHX9 ATPase assay (ADP-Glo)
# Type: biochemical
# measurement.context: read-out: DHX9 Biochemical Inflection Point
readout.label: IC50 (nM)
Answers are plain numbers, in nM.

Recorded IC50, per entry:
* Cc1cc(C(=O)Nc2cc(Cl)cc(NS(C)(=O)=O)c2)cn1-c1ccc(N2CCC2)cn1 [Example 397] | 10.2
* Cn1cc(C(=O)Nc2cc(Cl)cc(NS(C)(=O)=O)c2)cc1-c1ncc(F)cc1OC(F)F [Example 363] | 25.2
* Cc1cc(C(=O)Nc2cc(Cl)cc(NS(C)(=O)=O)c2)cn1-c1ccc(N2CCC3(CC3)C2)cn1 [Example 522] | 40.8
* COCc1ccc(-n2cc(C(=O)Nc3cc(Cl)cc(NS(C)(=O)=O)c3)cc2C)nc1 [Example 447] | 9
* CS(=O)(=O)Nc1cc(Cl)cc(NC(=O)c2cc(-c3ccccc3)n(CC(F)(F)F)c2)c1 [Example 80] | 493

Consider the following items and state reported IC50 for each.
1. Cc1sc(C(=O)Nc2cc(Cl)cc(NS(C)(=O)=O)c2)cc1-c1ncccc1OC(C)c1cncc(F)c1 (stereo not shown) [Example 630]
2. CS(=O)(=O)Nc1cc(F)cc(NC(=O)c2cc(Br)[nH]n2)c1 [Example 4]
3. CS(=O)(=O)Nc1cc(Cl)cc(NC(=O)c2coc(-c3ccccc3)c2)c1 [Example 125]
4. COc1cc(F)cnc1-n1cc(C(=O)Nc2cc(Cl)cc(NS(C)(=O)=O)c2)cc1C [Example 393]

Completion:
22.9
4820
330
2.3

Consider the following items and state reported IC50 for each.
1. CN(C)C(=O)Cc1cccnc1-c1csc(C(=O)Nc2cc(Cl)cc(NS(C)(=O)=O)c2)c1 [Example 221]
2. Cc1sc(C(=O)Nc2cc(Cl)cc(NS(C)(=O)=O)c2)cc1-c1ncc(N2CC(C(F)(F)F)C2)cc1F [Example 460]
3. COc1cnc(-c2cc(C(=O)Nc3cc(Cl)cc(NS(C)(=O)=O)c3)sc2C)c(Cl)c1 [Example 364]
4. CS(=O)(=O)Nc1cc(Br)cc(NC(=O)c2cnn(-c3ccccc3C=O)c2)c1 [Example 58]
5. CS(=O)(=O)Nc1cc(Cl)cc(NC(=O)c2cnn(CCO)c2)c1 [Example 127]
6. COc1cnc(-c2cc(C(=O)Nc3cc(Cl)cc(NS(C)(=O)=O)c3)sc2C)nc1 [Example 341]

Completion:
[6.6, 131, 15.6, 84.9, 138, 6.2]

Prompt: Item under review: Cc1sc(C(=O)Nc2cc(Cl)cc(NS(C)(=O)=O)c2)cc1-c1ncc(N2CCC3(CC2)CC3)cc1F [Example 467] . Reported IC50?
Completion: 155
